Value source: patent US8957074B2

Let's look at some compounds and their measured pIC50.
system: CDK1/cyclin B (Homo sapiens (Human), UniProt P06493)
Sequence (P06493 whole entry, species assumed): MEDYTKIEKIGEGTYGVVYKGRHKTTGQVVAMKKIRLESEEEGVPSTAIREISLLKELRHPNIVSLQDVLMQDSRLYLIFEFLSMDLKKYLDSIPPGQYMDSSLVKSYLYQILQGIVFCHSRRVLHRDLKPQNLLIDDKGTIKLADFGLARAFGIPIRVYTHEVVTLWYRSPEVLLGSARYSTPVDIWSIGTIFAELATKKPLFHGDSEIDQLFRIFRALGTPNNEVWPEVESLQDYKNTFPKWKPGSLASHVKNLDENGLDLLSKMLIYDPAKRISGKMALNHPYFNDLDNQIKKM
Sequence (P14635 whole entry partner, species assumed): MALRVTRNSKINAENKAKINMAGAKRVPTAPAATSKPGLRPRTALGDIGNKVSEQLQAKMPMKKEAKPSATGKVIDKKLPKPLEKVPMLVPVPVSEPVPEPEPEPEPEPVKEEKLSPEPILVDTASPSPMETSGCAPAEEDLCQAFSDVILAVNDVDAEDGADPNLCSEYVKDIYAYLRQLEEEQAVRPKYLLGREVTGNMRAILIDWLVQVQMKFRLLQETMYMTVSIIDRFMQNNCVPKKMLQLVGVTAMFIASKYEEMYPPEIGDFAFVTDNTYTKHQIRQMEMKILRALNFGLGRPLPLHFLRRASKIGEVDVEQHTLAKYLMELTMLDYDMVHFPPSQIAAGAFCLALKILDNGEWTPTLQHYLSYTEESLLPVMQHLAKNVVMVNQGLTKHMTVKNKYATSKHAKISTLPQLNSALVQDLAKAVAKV
protocol: CDK1/cyclin B enzymatic activity assay (IMAP-FP)
Type: biochemical
experimentalConditions: […] CDK1/cyclin B, 100 nM Tamra Histone-H1 peptide, 20 μM ATP, 120 min at room temperature; read-out: Biochemical CDK1 enzyme IC50
pIC50 (log units): -log10 of the concentration in mol/L.

// recorded pIC50 for CN(C)C(=O)c1cc2cnc(Nc3ccc(C(=O)N4CC5CCC(C4)N5)cn3)nc2n1C1CCCC1 : 4.88

New cases:
// recorded pIC50 for CN(C)C(=O)c1cc2cnc(Nc3ccc(C(=O)N4CC5CCC(C4)N5)cn3)nc2n1-c1cccc(C(C)(C)C)c1 : 5.70

// recorded pIC50 for CN(C)C(=O)c1cc2cnc(Nc3ccc(N4CC5CC4CN5)cn3)nc2n1C1CCCC1 (stereo not shown) : 5.04
